- assayed-target: T1, HLA-A*24:02 molecule
- T1 construct: MHC class I molecule on C1R-A24 cells, endogenous peptide and b2m stripped at pH 3.3, purified b2m added back; also called product of an HLA-A*24:02 gene; allele A*24:02
- measurement-description: flow cytometry, C1R-A24 cells;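 further: Read-out was the amount of peptide–MHC complex on each cell, taken as the fluorescence intensity of a bound fluorescent antibody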
reported-metric: log10 Kd (M)

| binder | reported-measurement |
| --- | --- |
| ALPKIRARV (synthetic 9-mer derived from EVC2) [peptide of SEQ ID NO: 12] | -6.18 |
| ALRPAPALL (synthetic 9-mer derived from EVC1) [peptide of SEQ ID NO: 26] | -6.4 |
| LVITRKSFI (synthetic 9-mer derived from Fas) [peptide of SEQ ID NO: 30] | -5.46 |
